Known IC50 of a selection of compounds
molecular target: Opioid receptors; mu/kappa/delta; test: Inhibition of 0.5 nM [3H]bremazocine binding to guinea pig brain membrane opioid receptors; design: species or system Cavia porcellus
Numeric only. Scale: nM

structure=Oc1ccc2c3c1O[C@H]1[C@H](OC[C@@H]4CO4)CC[C@@]4(O)[C@@H](C2)N(CC2CC2)CC[C@]314 measured_value=12
structure=C=C1C[C@H](CO[C@@H]2CC[C@@]3(O)[C@H]4Cc5ccc(O)c6c5[C@@]3(CCN4CC3CC3)[C@H]2O6)OC1=O measured_value=19
structure=C=C1C[C@H](CO[C@@H]2CC[C@@]3(OC(C)=O)[C@H]4Cc5ccc(O)c6c5[C@@]3(CCN4CC3CC3)[C@H]2O6)OC1=O measured_value=15
structure=Oc1ccc2c3c1O[C@H]1[C@H](OC[C@H]4CO4)CC[C@@]4(O)[C@@H](C2)N(CC2CC2)CC[C@]314 measured_value=11

Q. Please respond with reported IC50 (system Opioid receptors; mu/kappa/delta) for "C=C1C[C@@H](CO[C@@H]2CC[C@@]3(OC(C)=O)[C@H]4Cc5ccc(O)c6c5[C@@]3(CCN4CC3CC3)[C@H]2O6)OC1=O" .
A. 14

Q. Please respond with reported IC50 (system Opioid receptors; mu/kappa/delta) for "C=C1C[C@@H](CO[C@@H]2CC[C@@]3(O)[C@H]4Cc5ccc(O)c6c5[C@@]3(CCN4CC3CC3)[C@H]2O6)OC1=O" .
A. 18
